All figures here come from ChEMBL document CHEMBL1201862.

molecular target: Nucleotide-binding oligomerization domain-containing protein 1 (Homo sapiens); experiment: NOD1 signaling inhibitors, SAR follow-up, revised (AID 2333); type: functional
Sequence (Q9Y239 whole entry, the tested form may be a part): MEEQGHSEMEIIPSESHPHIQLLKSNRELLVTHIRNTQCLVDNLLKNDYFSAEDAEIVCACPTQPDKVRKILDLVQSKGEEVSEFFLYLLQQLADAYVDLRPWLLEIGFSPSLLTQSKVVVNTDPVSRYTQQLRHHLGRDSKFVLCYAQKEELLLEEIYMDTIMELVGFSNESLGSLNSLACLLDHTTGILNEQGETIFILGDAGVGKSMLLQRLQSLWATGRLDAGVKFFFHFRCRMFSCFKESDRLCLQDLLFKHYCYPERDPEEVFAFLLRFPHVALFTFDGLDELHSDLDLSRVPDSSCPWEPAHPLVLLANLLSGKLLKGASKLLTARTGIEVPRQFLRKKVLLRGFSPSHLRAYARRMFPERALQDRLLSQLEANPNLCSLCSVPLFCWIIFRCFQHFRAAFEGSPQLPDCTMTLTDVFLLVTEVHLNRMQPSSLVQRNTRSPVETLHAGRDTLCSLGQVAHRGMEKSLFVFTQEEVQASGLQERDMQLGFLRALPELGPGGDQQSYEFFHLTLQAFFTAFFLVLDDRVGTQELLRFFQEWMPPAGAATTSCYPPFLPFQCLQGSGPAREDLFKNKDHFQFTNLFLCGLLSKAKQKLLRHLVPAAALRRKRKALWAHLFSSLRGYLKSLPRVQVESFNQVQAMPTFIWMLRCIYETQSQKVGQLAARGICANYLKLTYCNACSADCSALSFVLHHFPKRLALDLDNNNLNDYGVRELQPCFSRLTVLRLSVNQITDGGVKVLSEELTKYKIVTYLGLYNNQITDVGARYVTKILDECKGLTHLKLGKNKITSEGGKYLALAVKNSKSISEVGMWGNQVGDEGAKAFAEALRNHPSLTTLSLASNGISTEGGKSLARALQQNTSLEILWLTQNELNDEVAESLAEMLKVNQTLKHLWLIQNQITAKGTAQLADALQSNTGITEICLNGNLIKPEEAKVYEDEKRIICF
Activity calls are given as the source filed them. No stated cut-off is given here; in the data, actives have a measured IC50 and inactives only a lower limit.
Answer with one of the outcomes active, inactive

Could you please tell me the result logged for CCOc1cccc(C=NN=C(S)Nc2ccccc2[N+](=O)[O-])c1O in this assay? active

Which result was noted for this compound in the test: COC(=O)c1c(NC(=O)C=Cc2cccs2)sc2c1CCC(C)C2 (stereo unspecified) active

How did this test come out for O=C(Nc1nc2ccccc2n1Cc1ccc(Cl)cc1)c1ccccc1 ? inactive

I would be grateful if you could indicate the recorded call for COc1ccc(CNS(=O)(=O)c2ccc3c(c2)CC(C)N3C(=O)C2CC2)cc1 (stereo unspecified) . active

Dear colleague, could you share the recorded outcome for Cc1cc(C(=O)NC2CCCc3c2cnn3-c2cccc(C)c2C)n(C)n1 (stereo unspecified) when you have a moment? active

Identify the outcome logged in this assay for the compound shown: Cc1ccc2cccc(N=Cc3c(C)[nH]n(-c4ccccc4)c3=O)c2n1 inactive
